Numbers sourced from paper PMC9352680.

Molecular target: T1, PUF4 RNA-binding domain (Saccharomyces cerevisiae, UniProt P25339 537-888)
T1 sequence: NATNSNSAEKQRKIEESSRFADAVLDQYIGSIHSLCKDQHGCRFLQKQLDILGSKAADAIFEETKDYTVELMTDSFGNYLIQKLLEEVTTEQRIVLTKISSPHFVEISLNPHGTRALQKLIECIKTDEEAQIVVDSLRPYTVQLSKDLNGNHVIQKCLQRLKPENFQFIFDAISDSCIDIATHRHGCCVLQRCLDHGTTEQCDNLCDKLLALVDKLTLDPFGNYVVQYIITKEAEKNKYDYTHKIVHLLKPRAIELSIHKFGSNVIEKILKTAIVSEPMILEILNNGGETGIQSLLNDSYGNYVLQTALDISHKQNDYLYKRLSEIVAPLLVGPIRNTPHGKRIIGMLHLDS
Assay: Mg; RNA-MaP; 20 mM Na-HEPES pH 7.4, 30 mM KOAc, 0.75 mM MgCl2, 0.1% Tween-20, 5% glycerol, 0.1 mg/mL BSA, 2 mM DTT; 25 C; 0.0125-409.6 nM protein
Settings: tags: N-His6-TEV cleaved; C-SNAP kept, Cy3B-labelled; label: tethered on chip by stalled RNA polymerase
Classify: true when Kd is strictly less than 40 nM; false when Kd is not.

Check out these entries, answers already filled in.
binder	assigned.label
Id_ii_S4_P4E.4_K4.3_C4.2_[T-1A]_H4.3_A4.1_F4.1_T4.2_[G10C] (ssRNA) RNA: UUUGACAACUGAUCGUUCUUUCUCAACACUAUUACUUUCUUUCUCGAUCAGUUGUCUUU	false
UCUCUUAUACACUUAUUAAUUCUCUU (ssRNA) [Id_ii_S1_P5E.4_K5.3_C5.2_[C-2A]_H5.3_A5.1_F5.1_T5.2_[T11A]_[A12T]]	false
Ic_S4_P4E.1_K4.1_C4.1_H4.1_A4.1_[T5C]_F4.1_[A9G]_T4.1 (ssRNA) RNA: UUUGACAACUGAUCGUUCUUUCUUGUACAUUGUUCUUUCUCGAUCAGUUGUCUUU	true

Hello, is Kd of the following binder strictly smaller than 40 nM? Id_ii_S2_P5E.4_K5.3_C5.2_[C-2T]_[T-1A]_H5.3_A5.1_F5.1_T5.2_[T11A]_[A12T] (ssRNA) RNA: UUUGAUUAAUAUGAUAUCGUUCUUUCUUAACACUUAUUAAUUUCUUUCUCGAUAUCAUAUUAAUCUUU
false

Hello, is Kd of the following binder strictly smaller than 40 nM? UCUCUUCUCACACUAUAUAUCUCUU (ssRNA) [Id_i_S1_P3E.7_K3.3_C3.3_[T-3C]_[C-2T]_[T-1C]_H3.3_A3.1_F3.1_T3.2]
false

Hello, is Kd of the following binder strictly smaller than 40 nM? UCUCUUUGUAAGUUUGUCUCUU (ssRNA) [Ic_S1_P5E.1_K5.1_C5.1_H5.1_A5.1_[T5A]_[T6G]_[A7T]_F5.1_[A10G]_T5.1]
false

Hello, is Kd of the following binder strictly smaller than 40 nM? UCUCUUCCUAUAUAUUAAAUCUCUU (ssRNA) [Id_ii_S1_P4E.3_K4.2_C4.2_[T-1C]_H4.2_A4.1_F4.1_T4.2_[G10A]_[T11A]]
true

Hello, is Kd of the following binder strictly smaller than 40 nM? Ic_S4_P5E.1_K5.1_C5.1_H5.1_A5.1_[T5G]_[A7T]_F5.1_[T8C]_[A10T]_T5.1 (ssRNA) RNA: UUUGACAACUGAUCGUUCUUUCUUGUAGUUCUUUUCUUUCUCGAUCAGUUGUCUUU
false

Hello, is Kd of the following binder strictly smaller than 40 nM? Id_iii_S2_P3E.7_K3.3_C3.3_[C-2G]_H3.3_A3.1_F3.1_T3.2 (ssRNA) RNA: UUUGAUUAAUAUGAUAUCGUUCUUUCUUGUACACUAUAUAUUCUUUCUCGAUAUCAUAUUAAUCUUU
true

Hello, is Kd of the following binder strictly smaller than 40 nM? UCUCUUUCUGUAUAUUAUCUCUCUU (ssRNA) [Id_ii_S1_P4E.2_K4.1_C4.2_[C-2T]_[T-1C]_H4.1_A4.1_F4.1_T4.2_[G10T]_[T11C]]
true

Hello, is Kd of the following binder strictly smaller than 40 nM? UCUCUUUGUAAGUGUCUCUU (ssRNA) [Ic_S1_P3E.1_K3.1_C3.1_H3.1_A3.1_[T5A]_[A6G]_F3.1_[A8G]_T3.1]
false

Hello, is Kd of the following binder strictly smaller than 40 nM? Ie_S4_P4E.1_K4.1_C4.1_H4.1_A4.1_[+5CCTC]_F4.1_T4.1 (ssRNA) RNA: UUUGACAACUGAUCGUUCUUUCUUGUAUCCUCAUUAUUCUUUCUCGAUCAGUUGUCUUU
false
